# measurement-notes: In vivo pharmacokinetics in rat
# Design: species or system Sprague Dawley rat
# condition-label: male, Sprague Dawley, plasma, iv, 10000 ug/kg
measured-metric: clearance (mL/min/kg)

> print(dat)
                           smiles.structure  measured.metric  quantitative.readout
1  CC(C)(C)c1cc(CCC(=O)c2ccc[nH]2)cc(C(C)(C)C)c1O        clearance                   236

###

# measurement-notes: In vivo pharmacokinetics in rat
# Design: species or system Sprague Dawley rat
# condition-label: male, Sprague Dawley, plasma, po, 10000 ug/kg
# Experimental: Compound 1 was administered p.o. (▪) or i.v. (•) to a nine week old male Sprague Dawley rat (FIG. 6). For survival blood collection, 250-350 μL blood samples were collected via jugular vein (JUGVEIN) cannula at proposed time points per study protocol and recorded. Blood was collected pre-dose and at 15 & 30 min, 1, 2, 4, 12, 24 & 48 hr after Compound 1 administration. Blood was collected into lithium heparin tubes for plasma collection. […] Processed study samples were analyzed using LC/MS/MS.
measured-metric: AUC(0-inf) (ng·h/mL)

> print(dat)
                           smiles.structure  measured.metric  measure.unit  quantitative.readout
1  CC(C)(C)c1cc(CCC(=O)c2ccc[nH]2)cc(C(C)(C)C)c1O       AUC(0-inf)       ng·h/mL                   747
